assay: yeast display, Sf9 membrane polyspecificity reagent, FACS + sequencing; frameworks hold sequencing errors
quantity.kind: polyreactivity (PSR sort gate)

| sequence.code | polyreactivity (PSR sort gate) |
| --- | --- |
| QVQLVESGGGLVQAGGSLRLSCAASGFIFYYYAMGWYRQAPGKERELVAAISRGGSTYYADSVKGRFTISRDNAKNTVYLQMNSLKPEDTAVYYCAAEAFPVYSYYYWGQGTQVTVSS | high polyreactivity |
| QVQLVESGGGLVQAGGSLRLSCAASGRTFANYAMGWYRQAPGKDRELVAAIYSGGNTYYEDSVKGRFTISRDNAKNTVFLQMNRLKPEDTAVYYCNSPWYYRYQRNEYGYWGQGTQVTVSS | high polyreactivity |
| QVQLVESGGGLVQAGGSLRLSCAASGRTFGSYAMGWYRQAPGKERELVAAITTDASTNYADSVKGRFTISRDNAKNTVYLQMNSLKPEDTAVYYCAKRKRTNYGFWGQGTQVTVSS | low polyreactivity |
| QVQLVESCGGLVQTGGSLRLICAASRSNFDYYAMGWYRQAPWKETELVATNSYDFSTSYADSVKVLFTISRDNAKNTVFLQMKSLKPVDTAVYYCATDAGLYLEDAYEGPEQEFDYWGQGTQVTVSS | low polyreactivity |

Please turn your attention to the following entry.
Report polyreactivity (PSR sort gate) for QVQLVESGGGLVQAGGSLRLSCAASGSTFYFYAMGWYRQAPGKERELVAAITYSGDRTRYADSVKGRFTISRDNAKNTVYLQMNSLKPEDTAVYYCAARYVGARNAYRMGYWGQGTQVTVSS please. high polyreactivity

* * *

assay: yeast display, Sf9 membrane polyspecificity reagent, FACS + sequencing; frameworks hold sequencing errors
quantity.kind: polyreactivity (PSR sort gate)

Check out these entries, answers already filled in.
| sequence.code | assay.result |
| --- | --- |
| QVQLVESGGGLVQAGGSLRLSCAASGSIFSYNAMGWYRQAPGKERELFAAITWSGGSTYYADSVKGRFTISRDNAKNTVYLQMNSLKPEDTAVYYCAAKGGYSTGRPTYTKFNYWGQGTQVTVSS | high polyreactivity |
| QVQLVESGAGLDQAGCSLRISCAASGRIFWFYTMGWYRQAPWKERELVAAISTSGGSTYYADSVKGRFTISRDNEKNTVYLQMNSLKPDDTAVYYCAAQNGYYPQHDYWGQGTQVTVSS | high polyreactivity |
| QVQLVESGGGLVQAGGSLRLSCAASGSTFRIYAMGWYRQAPGKERELVAAISSGGRTNYADSVKGRFTISRDNAKNTVYLQMNSLKPEDTAVYYCNAVFLPTYHFDYWGQGTQVTVSS | high polyreactivity |
| QVQLVESGGGLVQAGGSLRLSCAASGRTFDIYAMGWYRPAPGKERELVAAISSGGSTYYADSVKGRFTISRDNAKNTVYLQMNSLKPEDTAVYYCAVRWYDQVSRRGIGYYWGQGTQVTVSS | low polyreactivity |
| QVQLVESGGGLVQAGGSLRLSCAASGRIFPSNVMGWYRQAPGKERELVASISARGGSTYYADSVKGRFTISRDNAKNTGYLQMNSLKPEDTAVYYCHKRRSNGYSQHKLDYWGQGTQVTVSS | low polyreactivity |
| QVQLVESGGGLVQAGGSLRLSCAASGIIFYYYGMGWYSQAPGKERELVAAISTGGSTNYADSVKGRFTISRDNAKNTVYLQMNRLKPEDTAVYYCAVTYWWYYGYDYWGQGTQVTVSS | low polyreactivity |
| QVQLVESRGGLVQAGGSLRLSCAASGRTLKYNVMGWYRQAPGKERELVASITSRGGSTRYADSVKGRFTISRDNAKNTVYLQMNSLKPEDTAVYYCAARYTTARSSYDYWGQGTQVTVSS | high polyreactivity |
| QVQRVESGGGLVQAGGSLRLSCAASGFIFIRNAMGWYRQAPGKERELVAAISSGGRTYYADSVKGRFTISRDNAKNTVYLQMNSLQPEDTAVYYCATRPHRPRGHSVGQYDYWGQGTQVTVSS | high polyreactivity |
| QVHHVESGFGLVQAGGSLRLSCASSGTFTVNTMGWYRQAPGKERELVAAISTGDTTTYADSVKGRFTISRDNAKNTVYLQMNSLKPEDTAVYYCNVDIGVYAYESDYWGQGTQVTVSS | low polyreactivity |
| QVQLVESGRGLVQAGGSLRLSCAASGSIFKNYAMGWYRQAPGKERELVAAITRGTYYADSVKGRFTISRDNAKNTVYLQMNSLKPEDTAVYDCYREYWGRGYYRVRGEYDYWGQGTQVTVSS | low polyreactivity |

Can you share its polyreactivity (PSR sort gate)? I mean this sequence: QVQLVESGGGLVQAGGSLRFSCAASGSTFLSNAIGWYRLAPGKERELVAAISIGGGRTYYADSVKGRFTISRDNAKNTVYLQMNSLKPEYTAVYYCNAVGRHTDAYHYDYWGQGTQVTVSS high polyreactivity

Then QVQLVESGGGLVQAGGSLRLSCAASGRTLNRYAMGWYRQAPGKERELVAAIRWRGASTYYADSVKGRFTISRDNAKNTVYLQMNSLKPEDTAVYYCAKRFFASTPNFDYWGQGTQVTVSS ? high polyreactivity

And then QVQLVESGGGLVQAGGSLRLSCAASGSTFKDNAMGRYIQAPGKERELVARITYRGGRTYADSVKGRFTISRDNAKNTVYFQMNSLKPEDTAVYYCAARPSLYGHNSRYDYWGQGTQVTVSS , what is it? low polyreactivity

Next sequence: QVQLVESGGGLVQAGGSLRLSCAASGFIFPTNTMGWYRQAPGKEREFVARITRSGTNTYYADSVKGRFTISRDNAKNTVYLQMNSLKAEDTAVYYCARRGTSSYRRYWLDSASNMDYWGQGTQVTVSS high polyreactivity

How about QVQLVESRGGLVQAGGSLRLSCAASGFTFRLYAMGWSRQAPGKERELVAALTGRGGNTYYADSVMGRFTISRDNAKNTVYLQRNSLNPEDTAVYYCNRYTQWVGYDYWGQGTQVTVSS ? high polyreactivity
